Hello, the source for this data is paper PMC11434868, in case you need it.

test system: human CRC (HCT116 and HT-29) and human PCa (DU145 and PC3) cell lines; assay: MTT assay, summary statements over the cell lines; type: cell-based; conditions: 48 h; read-out: IC50 towards the selected cell lines
observation type: IC50

// IC50 value for COc1cc(C(=O)/C=C/c2c[nH]c3ccccc23)cc(OC)c1OC [chalcone 10] : < 40 nM

* * *

test system: PC3; assay: MTT assay, antiproliferative effect on PC3; assay type: cell-based; settings: Homo sapiens, PC-3, 24 h, read-out: IC50 PC3 24 h
observation type: pIC50
Reminder that pIC50 means the negative base-10 logarithm of the concentration expressed in mol/L.

Study these solved cases before continuing.
smiles entry	system	pIC50
COc1ccc(/C=C/C(=O)c2cc(OC)c(OC)c(OC)c2)cc1O	PC3	7.68
COc1cc(C(=O)/C=C/c2coc3ccc(C)cc3c2=O)cc(OC)c1OC	PC3	5.29
COc1ccc(O)c(/C=C/C(=O)c2cc(OC)c(OC)c(OC)c2)c1	PC3	5.48

// pIC50 value for COc1cc(/C=C/C(=O)c2cc(OC)c(OC)c(OC)c2)ccc1O : 5.35

// pIC50 value for COc1cc(C(=O)/C=C/c2c[nH]c3ccccc23)cc(OC)c1OC : 7.36

* * *

system: PC3; assay: MTT assay, antiproliferative effect on PC3; type: cell-based; details: Homo sapiens, PC-3, 48 h, read-out: IC50 PC3 48 h
pIC50: −log10 of the molar value.
Entry flag: Y if pIC50 reaches 6; N if it does not.

smiles entry	answer label
COc1cc(C(=O)/C=C/c2coc3ccc(C)cc3c2=O)cc(OC)c1OC	N
COc1cc(C(=O)/C=C/c2ccccc2O)cc(OC)c1OC	N

Threshold query (pIC50 >= 6) on COc1ccc(/C=C/C(=O)c2cc(OC)c(OC)c(OC)c2)cc1O
Y

* * *

tested on: human PCa (DU145 and PC3) cell lines; assay: MTT assay, summary statements for PCa cells; format: cell-based; conditions: Homo sapiens, DU-145, DU145 and PC3, text summary; read-out: IC50 towards PCa cells
pIC50: −log10 of the molar value.
Reported values of pIC50 for individual entries

smiles entry	reported value
COc1ccc(/C=C/C(=O)c2cc(OC)c(OC)c(OC)c2)cc1O	7.51 to 7.77

// pIC50 value for COc1cc(C(=O)/C=C/c2c[nH]c3ccccc23)cc(OC)c1OC : 7.51 to 7.77

* * *

Reported values of pIC50 for individual entries
tested on: HT-29; experiment: MTT assay, antiproliferative effect on HT-29; format: cell-based, human; details: Homo sapiens, HT-29, 48 h, 48 h, read-out: IC50 HT-29 48 h
Reminder that pIC50 means the negative base-10 logarithm of the concentration expressed in mol/L.

smiles entry	observation type	reported value
COc1cc(C(=O)/C=C/c2c[nH]c3ccccc23)cc(OC)c1OC	pIC50	7.55
COc1cc(C(=O)/C=C/c2ccc(O)cc2)cc(OC)c1OC	pIC50	4.82
COc1cc(O)ccc1/C=C/C(=O)c1cc(OC)c(OC)c(OC)c1	pIC50	4.75
COc1ccc(/C=C/C(=O)c2cc(OC)c(OC)c(OC)c2)c(O)c1	pIC50	4.94
COc1cc(C(=O)/C=C/c2coc3ccc(C(C)C)cc3c2=O)cc(OC)c1OC	pIC50	4.77
COc1cc(C(=O)/C=C/c2cccc(O)c2)cc(OC)c1OC	pIC50	5.14
COc1cc(C(=O)/C=C/c2coc3ccccc3c2=O)cc(OC)c1OC	pIC50	4.88
COc1cc(C(=O)/C=C/c2coc3ccc(C)cc3c2=O)cc(OC)c1OC	pIC50	5.51
COc1cc(C(=O)/C=C/c2ccccc2O)cc(OC)c1OC	pIC50	5.02
COc1ccc(/C=C/C(=O)c2cc(OC)c(OC)c(OC)c2)cc1O	pIC50	5.09

Could you now consider this next compound?
// pIC50 value for COc1ccc(O)c(/C=C/C(=O)c2cc(OC)c(OC)c(OC)c2)c1 : 4.98
